system: human PI3K p85 RNA; assay: Inhibition of human PI3K p85 mRNA levels by antisense oligonucleotides, real-time quantitative PCR; type: cell-based; settings: phosphorothioate oligodeoxynucleotides, oligonucleotide 150 nM, averages from two experiments
Strand notation (5' to 3'): a small letter for the sugar, then the base; units joined by * are phosphorothioate-linked, units joined directly phosphodiester-linked; [ ] holds rarer units or linkages, { } end groups; capitals alone tell only the bases. d = 2'-deoxy (DNA)
Binary classification by % Inhibition of PI3K p85 mRNA levels, with 6% as an inclusive lower bound for true (1); all other cases are false (0).

27992 (antisense TTTCTCATTGCCTTCACG; DNA, all phosphorothioate, methylation of C not given here) [compound 27992] = false (0)
27997 (antisense TTGCCCAACCACTCGTTC; DNA, all phosphorothioate, methylation of C not given here) [compound 27997] = true (1)
27978 (antisense GCTTCCTGTCCATCACTG; DNA, all phosphorothioate, methylation of C not given here) [compound 27978] = true (1)
27980 (antisense AATTCTGCCAGGTTGCTG; DNA, all phosphorothioate, methylation of C not given here) [compound 27980] = false (0)
27994 (antisense TTCAAGTCTTCTTCCAAT; DNA, all phosphorothioate, methylation of C not given here) [compound 27994] = true (1)
27985 (antisense GTTCATTCCATTCAGTTG; DNA, all phosphorothioate, methylation of C not given here) [compound 27985] = true (1)
28011 (antisense GACGTGCCTTTCTGCTAC; DNA, all phosphorothioate, methylation of C not given here) [compound 28011] = true (1)
28007 (antisense AAAGAAGGGATAAGCACT; DNA, all phosphorothioate, methylation of C not given here) [compound 28007] = true (1)
27998 (antisense GTCTTCAGTGTTTTCATT; DNA, all phosphorothioate, methylation of C not given here) [compound 27998] = false (0)
28012 (antisense ATTCTCCCAAAGCGTCCC; DNA, all phosphorothioate, methylation of C not given here) [compound 28012] = true (1)
27986 (antisense dA*dG*dT*dA*dG*dG*dT*dT*dT*dT*dG*dG*dT*dG*dG*dT*dT*dT) [compound 27986] = false (0)

---

tested on: mouse PI3K p85; assay: Inhibition of mouse PI3K p85 mRNA levels by antisense oligonucleotides, real-time quantitative RT-PCR; format: cell-based; set-up: concentration or dose not given beside the values; conditions: chimeric phosphorothioate 2′-MOE gapmers, averaged from two experiments
Strand notation (5' to 3'): a small letter for the sugar, then the base; units joined by * are phosphorothioate-linked, units joined directly phosphodiester-linked; [ ] holds rarer units or linkages, { } end groups; capitals alone tell only the bases. e = 2'-O-(2-methoxyethyl) (MOE); [5mC] = 5-methylcytosine; d = 2'-deoxy (DNA)
% Inhib. of mouse PI3K p85 mRNA levels values for the substances below.
READOUT NAME: % Inhib. of mouse PI3K p85 mRNA levels (%)

131413 (antisense eT*e[5mC]*eT*e[5mC]*e[5mC]*dA*dA*dG*dT*d[5mC]*d[5mC]*dA*d[5mC]*dT*dG*eA*e[5mC]*eG*e[5mC]*eG) [compound 131413] = 56
131417 (antisense eG*eG*eT*eG*eT*dA*dA*dG*dA*dG*dT*dG*dT*dA*dA*eT*e[5mC]*eG*e[5mC]*e[5mC]) [compound 131417] = 78

---

test system: human PI3K p85 RNA; assay: Inhibition of human PI3K p85 mRNA levels by antisense oligonucleotides, real-time quantitative PCR; format: cell-based; settings: phosphorothioate oligodeoxynucleotides, oligonucleotide 150 nM, averages from two experiments
Threshold 1%: % Inhibition of PI3K p85 mRNA levels strictly smaller gives condition met, otherwise condition not met.

27999 (antisense CTTTGTTTCGGTTGCTGC; DNA, all phosphorothioate, methylation of C not given here) [compound 27999] = condition not met
27993 (antisense ATCCTTTGTATTTCTTTC; DNA, all phosphorothioate, methylation of C not given here) [compound 27993] = condition not met
28000 (antisense CCTGTTTACTGCTCTCCC; DNA, all phosphorothioate, methylation of C not given here) [compound 28000] = condition not met
28004 (antisense ACATTGAGGGAGTCGTTG; DNA, all phosphorothioate, methylation of C not given here) [compound 28004] = condition met
28001 (antisense CCACCACTACAGAGCAGG; DNA, all phosphorothioate, methylation of C not given here) [compound 28001] = condition met
27989 (antisense ACCACAGAACTGAAGGTT; DNA, all phosphorothioate, methylation of C not given here) [compound 27989] = condition met
27977 (antisense ATCTTCTTCTCTTTCCTT; DNA, all phosphorothioate, methylation of C not given here) [compound 27977] = condition met
28013 (antisense TTCTGGCACTTTCTATGA; DNA, all phosphorothioate, methylation of C not given here) [compound 28013] = condition not met
28009 (antisense CCAGGCTAAACCAGGCTG; DNA, all phosphorothioate, methylation of C not given here) [compound 28009] = condition not met
28008 (antisense CTGCCTCTCTCTCCTCCG; DNA, all phosphorothioate, methylation of C not given here) [compound 28008] = condition met

---

tested on: mouse PI3K p85; assay: Inhibition of mouse PI3K p85 mRNA levels by antisense oligonucleotides, real-time quantitative RT-PCR; type: cell-based; parameters: concentration or dose not given beside the values; details: chimeric phosphorothioate 2′-MOE gapmers, averaged from two experiments
Strand notation (5' to 3'): a small letter for the sugar, then the base; units joined by * are phosphorothioate-linked, units joined directly phosphodiester-linked; [ ] holds rarer units or linkages, { } end groups; capitals alone tell only the bases. e = 2'-O-(2-methoxyethyl) (MOE); [5mC] = 5-methylcytosine; d = 2'-deoxy (DNA)
% Inhib. of mouse PI3K p85 mRNA levels values for the substances below.
READOUT NAME: % Inhib. of mouse PI3K p85 mRNA levels (%)

131418 (antisense e[5mC]*e[5mC]*eT*eG*e[5mC]*dT*dG*dG*dT*dA*dT*dT*dT*dG*dG*eA*e[5mC]*eA*e[5mC]*eT) [compound 131418] = 50
131409 (antisense eG*e[5mC]*eA*e[5mC]*eT*d[5mC]*dA*dT*dG*dT*d[5mC]*dT*dG*d[5mC]*dA*eG*e[5mC]*eT*e[5mC]*eT) [compound 131409] = 85
131415 (antisense eA*eT*eA*e[5mC]*eT*dG*dA*dA*dG*d[5mC]*dG*dT*dA*dA*dG*e[5mC]*e[5mC]*eA*eA*e[5mC]) [compound 131415] = 75
131412 (antisense e[5mC]*eT*eT*eG*e[5mC]*dT*dG*d[5mC]*dT*d[5mC]*d[5mC]*dG*dT*dG*dT*e[5mC]*eA*eG*e[5mC]*eT) [compound 131412] = 85

---

test system: human PI3K p85 RNA; assay: Inhibition of human PI3K p85 mRNA levels by antisense oligonucleotides, real-time quantitative PCR; type: cell-based; details: phosphorothioate oligodeoxynucleotides, oligonucleotide 150 nM, averages from two experiments
% Inhibition of PI3K p85 mRNA levels values for the substances below.
READOUT NAME: % Inhibition of PI3K p85 mRNA levels (%)

27982 (antisense ATTTCACTGTAAACGGCT; DNA, all phosphorothioate, methylation of C not given here) [compound 27982] = 19
28016 (antisense CCAACAAAACAGTCCAAA; DNA, all phosphorothioate, methylation of C not given here) [compound 28016] = 6
27984 (antisense GGCTGCTGAGAATCTGAA; DNA, all phosphorothioate, methylation of C not given here) [compound 27984] = 22
27990 (antisense ATTTCCTGGGATGTGCGG; DNA, all phosphorothioate, methylation of C not given here) [compound 27990] = 52
28006 (antisense ATCAGACTGGAGAGGAGC; DNA, all phosphorothioate, methylation of C not given here) [compound 28006] = 27
28002 (antisense CTTTACTTCGCCGTCCAC; DNA, all phosphorothioate, methylation of C not given here) [compound 28002] = 41
28014 (antisense CCTTCAGCAAAACAAAAC; DNA, all phosphorothioate, methylation of C not given here) [compound 28014] = 24
28003 (antisense AAAGCCATAGCCAGTTGC; DNA, all phosphorothioate, methylation of C not given here) [compound 28003] = 0
27983 (antisense GCTTGAAGAAATGTTTTA; DNA, all phosphorothioate, methylation of C not given here) [compound 27983] = 0
27995 (antisense ATTGGTCTCTCGTCTTTC; DNA, all phosphorothioate, methylation of C not given here) [compound 27995] = 0
28005 (antisense GCCCTTTGCTTTCCAGAG; DNA, all phosphorothioate, methylation of C not given here) [compound 28005] = 0

---

tested on: human PI3K p85 RNA; assay: Inhibition of human PI3K p85 mRNA levels by antisense oligonucleotides, real-time quantitative PCR; type: cell-based; conditions: chimeric phosphorothioate oligonucleotides with 2′-MOE wings and deoxy gap, oligonucleotide 150 nM, averaged from two experiments
Strand notation (5' to 3'): a small letter for the sugar, then the base; units joined by * are phosphorothioate-linked, units joined directly phosphodiester-linked; [ ] holds rarer units or linkages, { } end groups; capitals alone tell only the bases. e = 2'-O-(2-methoxyethyl) (MOE); [5mC] = 5-methylcytosine; d = 2'-deoxy (DNA)
Threshold 30%: % Inhibition of PI3K p85 mRNA levels strictly smaller gives y, otherwise n.

28037 (antisense eT*eT*eG*e[5mC]*dC*dC*dA*dA*dC*dC*dA*dC*dT*dC*eG*eT*eT*e[5mC]) [compound 28037] = y
28019 (antisense eT*eT*e[5mC]*eA*dA*dT*dG*dG*dC*dT*dT*dC*dC*dA*e[5mC]*eG*eA*eG) [compound 28019] = y
28051 (antisense eG*eA*e[5mC]*eG*dT*dG*dC*dC*dT*dT*dT*dC*dT*dG*e[5mC]*eT*eA*e[5mC]) [compound 28051] = n
28025 (antisense eG*eT*eT*e[5mC]*dA*dT*dT*dC*dC*dA*dT*dT*dC*dA*eG*eT*eT*eG) [compound 28025] = y
28035 (antisense eA*eT*eT*eG*dG*dT*dC*dT*dC*dT*dC*dG*dT*dC*eT*eT*eT*e[5mC]) [compound 28035] = y
28029 (antisense eA*e[5mC]*e[5mC]*eA*dC*dA*dG*dA*dA*dC*dT*dG*dA*dA*eG*eG*eT*eT) [compound 28029] = n

Data credit: patent US20040077580A1
